The entries below come with measured cell viability values attached.
Test system: BV-173
measurement-notes: cell viability (% survival relative to DMSO control, bortezomib = 0%); higher = less cytotoxic
test-parameters: 10000 nM; 72 h
Form entry: value (%) — number only.

Here is how some molecules turned out for cell viability.
molecule: CC(C(=O)O)C(=O)O [Methylmalonate]
value-units: %
value: 96.1
--
molecule: CCOC(=O)N1c2ccc(C(F)(F)F)cc2[C@@H](N(Cc2cc(C(F)(F)F)cc(C(F)(F)F)c2)C(=O)OC)C[C@H]1CC [Torcetrapib]
value-units: %
value: 26.9
--
molecule: CCOc1ccc(Cc2cc([C@@H]3O[C@H](CO)[C@@H](O)[C@H](O)[C@H]3O)ccc2Cl)cc1 [Dapagliflozin]
value-units: %
value: 82
--
molecule: OCCN1CCN(CCCN2c3ccccc3Sc3ccc(Cl)cc32)CC1 [Perphenazine]
value-units: %
value: 23.2
--
molecule: Cc1noc2c1-c1ccccc1C(c1ccc(Cl)cc1)=N[C@H]2CC(N)=O [CPI-0610]
value-units: %
value: 10.9
--
molecule: Clc1ccc2c(c1Cl)CNCC2
value-units: %
value: 83.6

State its cell viability for this molecule: Cc1ccc(S(=O)(=O)NC2c3ccccc3Oc3ccccc32)cc1 [AH-7614] 104

State its cell viability for this molecule: Cc1c(-c2ccccc2)oc2c(C(=O)OCCN3CCCCC3)cccc2c1=O.Cl [Flavoxate] 97.9

State its cell viability for this molecule: CN(C/C=C/C#CC(C)(C)C)Cc1cccc2ccccc12 [Terbinafine] 85.3
